# Tested on: NCI-H446
# ASSAY_PROCEDURE: Antiproliferative activity against human NCI-H446 cells assessed as inhibition of cell growth incubated for 72 hrs by CCK8 assay
# Assay type: functional, cell-based
# SETUP_CONDITIONS: NCI-H446, 72 h
MEASURE_NAME: IC50 (µM)
Quick note: give the figure in µM, leave out the unit.

Kindly note the recorded IC50 for O=C1CCC(N2C(=O)c3ccc(N4CC5CN(CC(=O)N6CCC(NC(=O)c7n[nH]cc7NC(=O)c7c(Cl)cccc7Cl)CC6)CC5C4)cc3C2=O)C(=O)N1 (centres undefined) , which is 0.157

Kindly note the recorded IC50 for O=C(CNc1cccc2c1C(=O)N(C1CCC(=O)NC1=O)C2=O)NCCCCCCCCCCC(=O)N1CCC(NC(=O)c2n[nH]cc2NC(=O)c2c(Cl)cccc2Cl)CC1 (centres undefined) , which is 0.148

Kindly note the recorded IC50 for O=C1CCC(N2C(=O)c3cccc(NCCCCCN4CCC(NC(=O)c5n[nH]cc5NC(=O)c5c(Cl)cccc5Cl)CC4)c3C2=O)C(=O)N1 (centres undefined) , which is 0.136

Kindly note the recorded IC50 for O=C1CCC(N2C(=O)c3cccc(NCCCCCCCN4CCC(NC(=O)c5n[nH]cc5NC(=O)c5c(Cl)cccc5Cl)CC4)c3C2=O)C(=O)N1 (centres undefined) , which is 0.0629
